# assayed target: T1, PUF4 RNA-binding domain (Saccharomyces cerevisiae, UniProt P25339 537-888)
# T1 sequence: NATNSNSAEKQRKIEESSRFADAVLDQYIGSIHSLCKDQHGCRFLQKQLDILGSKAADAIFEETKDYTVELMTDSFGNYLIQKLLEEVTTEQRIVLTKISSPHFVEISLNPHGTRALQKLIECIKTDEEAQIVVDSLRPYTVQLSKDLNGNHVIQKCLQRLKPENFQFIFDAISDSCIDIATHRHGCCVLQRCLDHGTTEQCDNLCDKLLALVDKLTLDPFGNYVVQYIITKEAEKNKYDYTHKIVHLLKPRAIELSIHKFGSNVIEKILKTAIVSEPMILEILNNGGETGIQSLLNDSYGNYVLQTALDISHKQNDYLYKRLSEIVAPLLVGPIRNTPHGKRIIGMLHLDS
# method: Mg; RNA-MaP; 20 mM Na-HEPES pH 7.4, 30 mM KOAc, 0.75 mM MgCl2, 0.1% Tween-20, 5% glycerol, 0.1 mg/mL BSA, 2 mM DTT; 25 C; 0.0125-409.6 nM protein
# condition info: tags: N-His6-TEV cleaved; C-SNAP kept, Cy3B-labelled; label: tethered on chip by stalled RNA polymerase
Define the label as YES when Kd is strictly less than 3 nM and as NO in all remaining cases.

Here's what some known entries look like.
Id_ii_S2_P4E.2_K4.1_C4.2_[T-1A]_H4.1_A4.1_F4.1_T4.2_[G10A]_[T11G] (ssRNA) RNA: UUUGAUUAAUAUGAUAUCGUUCUUUCUCAUGUAUAUUAAGUUCUUUCUCGAUAUCAUAUUAAUCUUU :: YES
Ic_S2_P3E.1_K3.1_C3.1_H3.1_A3.1_[T5C]_F3.1_[A8G]_T3.1 (ssRNA) RNA: UUUGAUUAAUAUGAUAUCGUUCUUUCUUGUACAUGUUCUUUCUCGAUAUCAUAUUAAUCUUU :: NO
UCUCUUUGUUCUCUAUUAUUAUCUCUU (ssRNA) [Ie_S1_P5E.1_K5.1_C5.1_H5.1_[+3TCTCT]_A5.1_F5.1_T5.1] :: NO
Ie_S4_P5E.1_K5.1_C5.1_H5.1_[+4CCC]_A5.1_F5.1_T5.1 (ssRNA) RNA: UUUGACAACUGAUCGUUCUUUCUUGUACCCUUAUUAUUCUUUCUCGAUCAGUUGUCUUU :: NO
UCUCUUUCUUGUAUAUUAUCUCUU (ssRNA) [Ie_S1_P4E.1_K4.1_C4.1_H4.1_[+1CTT]_A4.1_F4.1_T4.1] :: YES

Request: Does this binder meet the criterion Kd < 3 nM? Ib_S4_P3E.1_K3.1_C3.1_H3.1_[T1A]_[A4C]_A3.1_F3.1_T3.1 (ssRNA) RNA: UUUGACAACUGAUCGUUCUUUCUAGUCUAUAUUCUUUCUCGAUCAGUUGUCUUU
Result: NO
